Molecular target: Human CYP8B1 (Homo sapiens, UniProt Q9UNU6)
Construct: tissue Xenotech; host or cells: human liver microsomes
Sequence (Q9UNU6 1-501): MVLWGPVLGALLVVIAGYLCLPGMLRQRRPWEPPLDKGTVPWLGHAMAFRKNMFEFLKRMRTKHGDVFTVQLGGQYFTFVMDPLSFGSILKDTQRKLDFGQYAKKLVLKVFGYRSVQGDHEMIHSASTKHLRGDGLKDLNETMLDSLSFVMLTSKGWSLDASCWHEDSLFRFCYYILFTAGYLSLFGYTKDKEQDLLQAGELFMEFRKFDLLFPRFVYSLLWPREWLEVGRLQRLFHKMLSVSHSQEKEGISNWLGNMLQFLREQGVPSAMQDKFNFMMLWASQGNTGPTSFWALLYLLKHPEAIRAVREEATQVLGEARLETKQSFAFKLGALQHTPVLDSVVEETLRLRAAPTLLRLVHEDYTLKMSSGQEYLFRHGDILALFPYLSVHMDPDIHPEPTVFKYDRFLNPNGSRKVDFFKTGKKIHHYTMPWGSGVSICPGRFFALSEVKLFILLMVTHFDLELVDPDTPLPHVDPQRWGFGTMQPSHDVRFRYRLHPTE
Test: Human Cyp8B1 Liver Microsome Assay
Format: biochemical
Conditions: human liver microsomes; substrate 7α-hydroxy-4-cholesten-3-one, NADPH; 30 min pre-incubation, 45 min reaction; RapidFire MS readout
Recorded IC50 values for a group of compounds are listed next.

Compound: C[C@@H]1CN(c2ccnc3cc(OC(F)F)ccc23)CC[C@@H]1C(=O)N1CCn2c(nnc2C(F)(F)F)C1 [Example 33]
IC50 [nM]: 8.3
//
Compound: C[C@@H]1CN(c2ccnc3nc(C(F)(F)F)ccc23)CC[C@@H]1C(=O)N1CCn2c(nnc2C(F)(F)F)C1 [Example 31]
IC50 [nM]: 2700
//
Compound: C[C@@H]1CN(c2ccnc3cc(OC(F)(F)F)ccc23)CC[C@@H]1C(=O)N1CCn2c(nnc2C(F)(F)F)C1 [Example 29]
IC50 [nM]: 0.34
//
Compound: COc1ccc2c(N3CC[C@H](C(=O)N4CCn5c(nnc5C(F)(F)F)C4)[C@H](C)C3)c(Cl)cnc2c1F [Example 41]
IC50 [nM]: 0.38
//
Compound: Cc1cnc2cc(C(F)(F)F)ccc2c1N1CC[C@H](C(=O)N2CCn3c(nnc3C(F)(F)F)C2)[C@H](C)C1 [Example 35]
IC50 [nM]: 0.17
//
Compound: C[C@@H]1CC(c2c(Cl)cnc3cc(C(F)F)ccc23)CCN1C(=O)N1CCn2c(nnc2C(F)(F)F)C1 (stereo partly drawn) [Example 57]
IC50 [nM]: 0.32
//
Compound: C[C@@H]1CN(c2ccnc3cc(-c4ncco4)ccc23)CC[C@@H]1C(=O)N1CCn2c(nnc2C(F)(F)F)C1 [Example 73]
IC50 [nM]: 0.4
//
Compound: C[C@@H]1CN(c2c(Cl)cnc3cc(C(F)(F)F)ccc23)CC[C@@H]1C(=O)N1CCn2c(nnc2C(F)(F)F)C1 [Example 55]
IC50 [nM]: 0.2
//
Compound: Cc1ccc2c(N3CC[C@H](C(=O)N4CCn5c(nnc5C(F)(F)F)C4)[C@H](C)C3)ccnc2n1 [Example 27]
IC50 [nM]: 6700
//
Compound: C[C@@H]1CN(c2c(Cl)cnc3cc(C(C)(F)F)ccc23)CC[C@@H]1C(=O)N1CCn2c(nnc2C(F)(F)F)C1 [Example 49]
IC50 [nM]: 0.46
//
Compound: C[C@@H]1CN(c2ccnc3cc(OCc4ccccc4)ccc23)CC[C@@H]1C(=O)N1CCn2c(nnc2C(F)(F)F)C1 [Example 30]
IC50 [nM]: 3.91
//
Compound: C[C@@H]1CN(c2ccnc3ccc(F)cc23)CC[C@@H]1C(=O)N1CCn2c(nnc2C(F)(F)F)C1 [Example 14]
IC50 [nM]: 52
//
Compound: C[C@@H]1CN(c2c(C(N)=O)cnc3cc(OCC4CC4)ccc23)CC[C@@H]1C(=O)N1CCn2c(nnc2C(F)(F)F)C1 [Example 39]
IC50 [nM]: 5.29
//
Compound: C[C@@H]1CN(c2c(Cl)cnc3c2CCN(c2ccccn2)C3)CC[C@@H]1C(=O)N1CCn2c(nnc2C(F)(F)F)C1 [Example 62]
IC50 [nM]: 0.4
//
Compound: CC(C)NC(=O)c1ccc2c(N3CC[C@H](C(=O)N4CCn5c(nnc5C(F)(F)F)C4)[C@H](C)C3)ccnc2c1 [Example 66]
IC50 [nM]: 4.5
//
Compound: COc1cnc2c(N3CC[C@H](C(=O)N4CCn5c(nnc5C(F)(F)F)C4)[C@H](C)C3)c(Cl)cnc2c1 [Example 8]
IC50 [nM]: 1.2
//
Compound: C[C@@H]1CN(c2c(Cl)cnc3cc(-c4ncco4)ccc23)CC[C@@H]1C(=O)N1CCc2c(noc2C(F)(F)F)C1 [Example 77]
IC50 [nM]: 0.2
//
Compound: C[C@@H]1CN(c2c(Cl)c[n+]([O-])c3cc(C(F)(F)F)ccc23)CC[C@@H]1C(=O)N1CCn2c(nnc2C(F)(F)F)C1 [Example 40]
IC50 [nM]: 0.8
